test system: SMMC-7721; assay: Cytotoxicity against human SMMC-7721 cells assessed as cell viability after 24 hrs by MTT assay; assay type: functional, cell-based; settings: SMMC-7721, 24 h
pIC50: −log10 of the molar value.
# pIC50 values compiled below

MOLECULE | TESTED SYSTEM | LIMIT QUALIFIER | pIC50
C[C@@H]1CC[C@H]2[C@@H](C)C(=O)O[C@@H]3O[C@@]4(C)CC[C@@H]1[C@]32OO4 [ARTEMISININ] | SMMC-7721 | = | 6.20
CC(C)[C@H]1CC[C@H](C)C[C@@H]1O[C@H]1OC(=O)C(Br)=C1N1CCN([C@@H]2O[C@@H]3O[C@@]4(C)CC[C@H]5[C@H](C)CC[C@@H]([C@H]2C)[C@@]35OO4)CC1 | SMMC-7721 | = | 6.41
CC[C@]1(O)C[C@H]2CN(CCc3c([nH]c4ccccc34)[C@@](C(=O)OC)(c3cc4c(cc3OC)N(C=O)[C@H]3[C@@](O)(C(=O)OC)[C@H](OC(C)=O)[C@]5(CC)C=CCN6CC[C@]43[C@@H]65)C2)C1 [VINCRISTINE] | SMMC-7721 | = | 6.57
C[C@H]1[C@H](N2CCN(C3=C(Cl)C(=O)OC3O[C@H]3CC4CCC3(C)C4(C)C)CC2)O[C@@H]2O[C@@]3(C)CC[C@H]4[C@H](C)CC[C@@H]1[C@@]24OO3 (stereo partly specified) | SMMC-7721 | = | 6.24
C[C@H]1[C@H](O)O[C@@H]2O[C@@]3(C)CC[C@H]4[C@H](C)CC[C@@H]1[C@@]24OO3 | SMMC-7721 | < | 6.15
COC1OC(=O)C(Br)=C1N1CCN([C@@H]2O[C@@H]3O[C@@]4(C)CC[C@H]5[C@H](C)CC[C@@H]([C@H]2C)[C@@]35OO4)CC1 (stereo partly specified) | SMMC-7721 | = | 6.54
COC1OC(=O)C(Cl)=C1N1CCN([C@@H]2O[C@@H]3O[C@@]4(C)CC[C@H]5[C@H](C)CC[C@@H]([C@H]2C)[C@@]35OO4)CC1 (stereo partly specified) | SMMC-7721 | = | 6.59
CCOC1OC(=O)C(Br)=C1N1CCN([C@@H]2O[C@@H]3O[C@@]4(C)CC[C@H]5[C@H](C)CC[C@@H]([C@H]2C)[C@@]35OO4)CC1 (stereo partly specified) | SMMC-7721 | = | 6.37
CCOC1OC(=O)C(Cl)=C1N1CCN([C@@H]2O[C@@H]3O[C@@]4(C)CC[C@H]5[C@H](C)CC[C@@H]([C@H]2C)[C@@]35OO4)CC1 (stereo partly specified) | SMMC-7721 | = | 6.25
CC(C)[C@H]1CC[C@H](C)C[C@@H]1O[C@H]1OC(=O)C(Cl)=C1N1CCN([C@@H]2O[C@@H]3O[C@@]4(C)CC[C@H]5[C@H](C)CC[C@@H]([C@H]2C)[C@@]35OO4)CC1 | SMMC-7721 | = | 6.28
C[C@H]1[C@H](N2CCN(C3=C(Br)C(=O)O[C@@H]3O[C@H]3CC4CCC3(C)C4(C)C)CC2)O[C@@H]2O[C@@]3(C)CC[C@H]4[C@H](C)CC[C@@H]1[C@@]24OO3 | SMMC-7721 | = | 6.32
